tested on: HCT-116; assay: Antiproliferative activity against human HCT116 cells after 72 hrs by SRB assay; type: functional, cell-based; conditions: HCT-116, 72 h
IC50 values, listed per item
Give the number first and the unit second.

Lab book: IC50 of Cn1c2ccccc2c2c(NCCCCN)c3cc(Cl)ccc3nc21 noted as 5500 nM

Looking up Cn1c2nc3ccccc3c-2c(NCCCCN)c2ccccc21 , I found its IC50 recorded as 669 nM

Input CN1CCCN(c2c3cc(Cl)ccc3nc3c2c2ccccc2n3C)CC1 . Output IC50: 8000 nM

====

tested on: HCT-116; experiment: Antiproliferative activity against human HCT116 cells after 72 hrs by SRB assay; assay type: functional, cell-based; conditions: HCT-116, 72 h
Structures can show the parent of a compound that is named as a salt.
recordedEndpoint: IC50 (nM)
Give the value, in units of nM, as a plain number.

Consider the following illustrative entries.
1) COc1cccc2c1C(=O)c1c(O)c3c(c(O)c1C2=O)C[C@@](O)(C(=O)CO)C[C@@H]3O[C@H]1C[C@H](N)[C@H](O)[C@H](C)O1 [DOXORUBICIN HYDROCHLORIDE]    390
2) Cn1c2nc3ccccc3c-2c(NCCCN)c2cc(Cl)ccc21    195
3) COc1ccc2c(c1)c(NCCCO)c1c3ccccc3nc-1n2C    278

Let us examine a further case.
// sample Cn1c2nc3ccccc3c-2c(NCCCCN)c2cc(F)ccc21 , its IC50 was 178
